# Test system: HRV33 (1200)
# assay overview: Anti-rhinovirus spectrum (MTT), HRV33
# Assay type: cell-based, human rhinovirus
# Design: unit not given here
# assay setup: HRV33

| compound | Anti-Rhinovirus activity, HRV33 |
| --- | --- |
| CCn1c2c(c(=O)c3c(C(C)C)c(OC)ccc31)Cc1ccccc1-2 [Compound B7] | 0.097 |
| CCn1c2c(c(=O)c3cc(C(C)C)ccc31)Cc1cc(OC)c(OC)cc1-2 [Compound B22] | 0.16 |
| CCn1c2c(c(=O)c3cc(C(C)C)ccc31)Cc1ccccc1-2.Cl [Compound B3] | 0.20 |
| CCn1c2c(c(=O)c3cc(C(C)C)ccc31)Cc1cc(OC)c(C)cc1-2 [Compound B20] | 0.097 |
| CCn1c2c(c(=O)c3cc(CC(C)C)ccc31)Cc1cc(OC)ccc1-2 [Compound B15] | 0.29 |
